Data provenance is ChEMBL document CHEMBL1128169.

Please go through the items and note down their Ki.
target or system: Transient receptor potential cation channel subfamily V member 1 (Homo sapiens, UniProt Q8NER1)
Sequence (Q8NER1 whole entry): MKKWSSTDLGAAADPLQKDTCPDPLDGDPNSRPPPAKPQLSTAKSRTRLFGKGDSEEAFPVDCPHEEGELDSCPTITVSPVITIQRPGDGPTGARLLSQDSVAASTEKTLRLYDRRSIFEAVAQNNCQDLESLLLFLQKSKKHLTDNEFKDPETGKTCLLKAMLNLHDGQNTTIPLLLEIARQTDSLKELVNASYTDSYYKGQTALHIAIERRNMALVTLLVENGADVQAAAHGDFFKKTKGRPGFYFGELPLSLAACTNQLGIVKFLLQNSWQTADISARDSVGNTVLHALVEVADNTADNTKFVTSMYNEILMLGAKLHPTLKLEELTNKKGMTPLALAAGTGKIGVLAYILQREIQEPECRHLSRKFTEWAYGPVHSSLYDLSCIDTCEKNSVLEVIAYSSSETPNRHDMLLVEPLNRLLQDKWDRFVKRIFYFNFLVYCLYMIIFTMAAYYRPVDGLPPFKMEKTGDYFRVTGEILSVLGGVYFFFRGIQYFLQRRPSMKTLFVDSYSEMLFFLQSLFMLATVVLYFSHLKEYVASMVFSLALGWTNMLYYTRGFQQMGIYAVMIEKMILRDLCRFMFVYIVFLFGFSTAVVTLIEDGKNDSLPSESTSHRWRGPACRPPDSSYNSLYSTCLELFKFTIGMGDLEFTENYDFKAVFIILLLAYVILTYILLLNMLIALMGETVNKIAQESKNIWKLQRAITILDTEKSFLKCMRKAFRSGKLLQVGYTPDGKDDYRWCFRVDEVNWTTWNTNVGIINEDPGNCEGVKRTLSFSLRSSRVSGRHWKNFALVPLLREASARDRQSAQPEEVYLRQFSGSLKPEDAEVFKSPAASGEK
experiment summary: Displacement of [3H]RTX binding from vanilloid receptor
A number alone suffices; assume nM.

(Q) Hello, please tell me recorded Ki for this one: C=C(C)[C@]12C[C@@H](C)[C@@]34OC(Cc5ccccc5)(O[C@@H]1[C@@H]3C=C(C/N=C(\S)Nc1ccc(O)c(OC)c1)C[C@]1(O)C(=O)C(C)=C[C@@H]41)O2
(A) 66.1

(Q) Hello, please tell me recorded Ki for this one: C=C(C)[C@]12C[C@@H](C)[C@@]34OC(Cc5ccccc5)(O[C@@H]1[C@@H]3C=C(CNC(=S)NCc1ccc(O)c(OC)c1)C[C@]1(O)C(=O)C(C)=C[C@@H]41)O2
(A) 149

(Q) Hello, please tell me recorded Ki for this one: C=C(C)[C@]12C[C@@H](C)[C@@]34O[C@](Cc5ccccc5)(O[C@@H]1[C@@H]3C=C(COC(=O)Cc1ccc(O)c(OC)c1)C[C@]1(O)C(=O)C(C)=CC41)O2 (single isomer, unassigned)
(A) 23.1
